TGT: HLA-A*0301 (purified HLA class I molecule) (human)
TEST_PROTOCOL: competition with 125I-labelled probe peptide on purified HLA-A*0301, gel filtration
Each entry gets Not fulfilled if its relative binding ratio (IC50 of standard peptide / IC50 of test peptide) stays under 0.02 ratio, and Fulfilled if its relative binding ratio (IC50 of standard peptide / IC50 of test peptide) is 0.02 ratio or above.

>>> answer_label("TILWKDIFHK (Synthetic peptide; also called Her2/neu.166) [HER2/NEU A03 motif peptide, position 166, 10 amino acids]")
"Fulfilled"
>>> answer_label("TLIDTNRSR (Synthetic peptide) [HER2/NEU A03 motif peptide, position 182, 9 amino acids]")
"Not fulfilled"
>>> answer_label("RGTQLFEDNY (Synthetic peptide) [HER2/NEU A03 motif peptide, position 103, 10 amino acids]")
"Not fulfilled"
>>> answer_label("RILKETELRK (Synthetic peptide) [HER2/NEU A03 motif peptide, position 713, 10 amino acids]")
"Fulfilled"
>>> answer_label("SSEDCQSLTR (Synthetic peptide) [HER2/NEU A03 motif peptide, position 208, 10 amino acids]")
"Not fulfilled"
>>> answer_label("RMARDPQRF (Synthetic peptide) [HER2/NEU A03 motif peptide, position 978, 9 amino acids]")
"Not fulfilled"
>>> answer_label("RVLQGLPREY (Synthetic peptide) [HER2/NEU A03 motif peptide, position 545, 10 amino acids]")
"Fulfilled"
>>> answer_label("TIDVYMIMVK (Synthetic peptide) [HER2/NEU A03 motif peptide, position 948, 10 amino acids]")
"Not fulfilled"
>>> answer_label("TLEEITGYLY (Synthetic peptide; also called Her2/neu.402) [HER2/NEU A03 motif peptide, position 402, 10 amino acids]")
"Not fulfilled"
>>> answer_label("RLVHRDLAAR (Synthetic peptide) [HER2/NEU A03 motif peptide, position 840, 10 amino acids]")
"Fulfilled"
>>> answer_label("RLLDIDETEY (Synthetic peptide) [HER2/NEU A03 motif peptide, position 868, 10 amino acids]")
"Not fulfilled"
>>> answer_label("RILKETELR (Synthetic peptide) [HER2/NEU A03 motif peptide, position 713, 9 amino acids]")
"Not fulfilled"
>>> answer_label("SVFQNLQVIR (Synthetic peptide) [HER2/NEU A03 motif peptide, position 423, 10 amino acids]")
"Not fulfilled"
>>> answer_label("SMPNPEGRY (Synthetic peptide) [HER2/NEU A03 motif peptide, position 281, 9 amino acids]")
"Not fulfilled"

Values were extracted from patent US20040018971A1.
